Entry source: ChEMBL document CHEMBL1201862

Readings of GI50 for the listed molecules
- Tested on: HOP-62
- test.description: NCI tumour cell line growth inhibition, 48 h
Calls of active or inactive are those of the source. Rule as the data show it: active = GI50 up to about 1.1 µM and inactive = higher.

Some molecules with recorded GI50:
O=C(NNCC(O)COc1ccccc1)c1ccccc1 (stereo unspecified) : > 100 µM (inactive)
Cc1ccc(/C=N/Nc2nncc3ccccc23)s1 : > 46.7 µM (inactive)
COc1ccc2c(c1)CCN1C3=C(CCC3)C(=O)C[C@@H]21 : > 100 µM (inactive)
CCNc1ncnc2sc(SCc3ccccc3)nc12 : > 100 µM (inactive)
[N-]=[N+]=NC(CCl)c1cn([C@H]2C[C@H](O)[C@@H](CO)O2)c(=O)[nH]c1=O (stereo partly specified) : > 100 µM (inactive)

Now for another entry.
Determine its reported GI50: O=C(COc1ccccc1Cl)N1N=C(c2ccc(Cl)cc2)CC1(O)c1ccccc1 (stereo unspecified)
> 100 µM (inactive)
